- measurementNotes: NCI Yeast Anticancer Drug Screen. Data for the bub3 strain (AID 167)
- testParameters: S. cerevisiae bub3 mutant strain, at 50.0 µM, hits give high values
The panel holds about 79,000 compounds, 15% with a hit somewhere; the sample as a whole holds those more often. Where a SMILES comes first, the peptide text is derived from it. [ ]: non-standard residue; d: D form. ξ: configuration not given here. ξP = O=C(O)C1CCCN1
Below, each entry is listed alongside its reported growth inhibition.

molecule	growth inhibition, %
O=C(O)C(CO)N=Cc1nc(-c2ccccc2)oc1O (configuration not stated)	-6.25
NC(CC1C=CCCC1)C(=O)O (configuration not stated)	7.1
CC(C)N(C=C(C#N)C#N)C(C)C	3.75
CC12CCC(Cl)(CC1O)C2(C)C (configuration not stated)	-6.9
CC(=O)Nc1cc2c3c(c1)CCCN3CCC2	27.6
C[N+](C)(C)Cc1cc2ccccc2c2ccccc12	-8.35
CCOC(=O)Nc1cccc(Cl)c1Cl	-27.9
Brc1ccc(/C=C/c2ccnnc2)cc1	47.7
CC(=O)OCC(OC(C)=O)C(OC(C)=O)C(OC(C)=O)C(OC(C)=O)c1cnn(-c2ccccc2)n1 (configuration not stated)	6.05
C=CCSc1nc2ccc(N3C(=O)C4C5C=CC(C5)C4C3=O)cc2s1 (configuration not stated)	-8.3
CCCCCCC1(/C=C/c2ccc(Cl)c(Cl)c2)OCCCO1	3.2
CCc1ccc(O[Si](C)(C)C)cc1	-21.9
COc1ccc2c(c1C)OC(C)C2=O (configuration not stated)	-15.9
CCOc1cc(/C=C2/C=C(c3ccc(OC)cc3)OC2=O)ccc1O	2.75
COc1ccc(C(C)(C)c2ccccc2)cc1	-24.6
CCCCCNC(=O)C(C)O (configuration not stated)	-2.2
C/C(=C\CNc1ncnc2c1ncn2C1CCCCO1)COP(=O)(O)O (configuration not stated)	-4.8
Cc1ccc(SCc2cn(C3OC(CO)C(O)C3O)c(=O)[nH]c2=O)cc1 (configuration not stated)	-1.4
Cc1ccc(S(=O)(=O)Nc2ccc(O)cc2)cc1	-7.6
COC1(OC)CCCCCCCCC(OC)(OC)CCCCCCCC1	16.2
O=C1CCCC2=C1CC1=C(CCCC1=O)N2c1cccc2ccccc12	21.8
CCOC/N=C(/N)NC#N	-3.4
CSC1(C)C(=O)Nc2cc([N+](=O)[O-])ccc21 (configuration not stated)	-32.5
NC(N)=N/N=C(\c1ccc(Cl)cc1)C1CC1	-65.3
CC(C)(C(=O)O)C(=O)O	21.4
Cn1c2ccccc2c2[nH]c3ccccc3c(=O)c21	-11.4
Oc1ccc(Oc2cc3c(cc2Oc2ccc(O)cc2)-c2nc-3nc3[nH]c(nc4nc(nc5[nH]c(n2)c2cc(Oc6ccc(O)cc6)c(Oc6ccc(O)cc6)cc52)-c2cc(Oc5ccc(O)cc5)c(Oc5ccc(O)cc5)cc2-4)c2cc(Oc4ccc(O)cc4)c(Oc4ccc(O)cc4)cc32)cc1	-80.5
NS(=O)(=O)c1ccc(NC(=O)/C=C\C(=O)O)cc1	-4.2
O=C(C[n+]1ccccc1)c1ccccc1	9.45
CC(Cc1ccccc1)NN (configuration not stated)	10.4
Nc1nc2nc(-c3ccccc3)[nH]c2c(=O)[nH]1	-15.1
S=C(SNC1CCCCC1)SNC1CCCCC1	9.35
CC12CCC3C(CC=C4CC(O)CCC43C)C1CCC(=O)N2 (configuration not stated)	-10.2
CC(c1ccccc1)n1cnc2c(N(CCO)CCO)ncnc21 (configuration not stated)	9.85
O=C(O)C1CCC(C(=O)O)S1 (configuration not stated)	9.9
Cc1ccc(NC(=O)c2ccc(Cl)cc2)cc1	0
O=C(NCCNCCO)N/N=C/c1ccc([N+](=O)[O-])cc1	0.3
Cc1cnc(-c2ccccc2)o1	0.9
COc1ccc(C(=O)C/C(=N\N(C(=O)c2ccc(OC)cc2)c2ccccc2)c2ccc(OC)cc2)cc1	-9.85
C#CCC1CCCC/C1=N\Nc1ccc([N+](=O)[O-])cc1[N+](=O)[O-] (configuration not stated)	4.4
C(#Cc1c2ccccc2c(C#Cc2ccccc2)c2c(-c3ccccc3)cccc12)c1ccccc1	45.6
C1CCC(CN2CCN(CC3CCCCO3)CC2)OC1 (configuration not stated)	0.25
O=C(NNC(=O)C(Oc1ccccc1)c1ccccc1)C(Cl)Cl (configuration not stated)	10.3
CN(C)c1nc(Oc2nc(N(C)C)nc(N(C)C)n2)nc(N(C)C)n1	-21.4
CCOC(=O)C(/C=N\C(=S)Nc1ccc(OCC)cc1)=C(/O)c1ccccc1	-30.2
NCC(=O)N1CCCC1C(=O)NCC(=O)NCC(=O)O (configuration not stated) (H-G[ξP]GG-OH)	-16.9
NS(=O)(=O)c1ccc(N=C2C(=O)Nc3ccccc32)cc1	-23.8
